molecular target: UniProt:P00533; assay: ADP-Glo kinase assay, EGFR; assay type: biochemical; design: purchased BPS Bioscience (assay run externally by the vendor); conditions: Log[nM] 4.0; Set3
Sequence (P00533 25-1210): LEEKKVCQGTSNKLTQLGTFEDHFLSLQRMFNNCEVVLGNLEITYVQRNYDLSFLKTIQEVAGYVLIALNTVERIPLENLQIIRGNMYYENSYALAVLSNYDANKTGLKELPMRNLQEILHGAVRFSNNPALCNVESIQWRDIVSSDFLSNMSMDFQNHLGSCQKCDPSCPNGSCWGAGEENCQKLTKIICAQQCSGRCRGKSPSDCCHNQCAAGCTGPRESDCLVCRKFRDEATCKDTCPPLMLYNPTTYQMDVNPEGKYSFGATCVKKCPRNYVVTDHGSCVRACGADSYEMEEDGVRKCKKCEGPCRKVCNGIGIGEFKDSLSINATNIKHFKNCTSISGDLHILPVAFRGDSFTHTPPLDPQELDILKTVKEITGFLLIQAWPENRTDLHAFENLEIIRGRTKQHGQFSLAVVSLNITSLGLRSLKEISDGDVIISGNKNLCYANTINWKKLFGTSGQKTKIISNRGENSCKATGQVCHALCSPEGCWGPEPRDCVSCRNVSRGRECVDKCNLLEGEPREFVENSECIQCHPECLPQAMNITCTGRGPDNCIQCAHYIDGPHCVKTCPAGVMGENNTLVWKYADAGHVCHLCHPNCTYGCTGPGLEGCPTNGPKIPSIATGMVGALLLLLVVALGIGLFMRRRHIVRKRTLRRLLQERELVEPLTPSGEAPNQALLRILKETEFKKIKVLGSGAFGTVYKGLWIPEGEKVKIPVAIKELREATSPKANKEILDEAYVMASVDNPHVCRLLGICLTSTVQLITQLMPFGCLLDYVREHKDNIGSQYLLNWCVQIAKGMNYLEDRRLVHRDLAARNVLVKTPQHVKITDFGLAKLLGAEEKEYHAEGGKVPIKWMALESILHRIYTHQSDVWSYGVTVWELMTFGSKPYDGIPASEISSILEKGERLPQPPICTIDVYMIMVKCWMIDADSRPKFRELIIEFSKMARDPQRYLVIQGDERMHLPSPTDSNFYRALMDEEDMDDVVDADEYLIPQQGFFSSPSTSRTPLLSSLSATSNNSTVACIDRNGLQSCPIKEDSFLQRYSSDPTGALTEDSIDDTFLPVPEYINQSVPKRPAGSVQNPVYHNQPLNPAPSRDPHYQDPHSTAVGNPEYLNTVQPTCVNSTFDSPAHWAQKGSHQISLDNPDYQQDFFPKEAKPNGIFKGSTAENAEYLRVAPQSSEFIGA
Param label: returns t when EGFR % Activity Set3 < 1%, returns f otherwise, including exact equality.

Past entries and their recorded results:
c1ccc(Cc2ccc(Nc3ncnc4[nH]ccc34)cc2)cc1 [Compound 18] ... f
c1ccc(Oc2ccc(Nc3ncnc4[nH]ccc34)cc2)cc1 [Compound 17] ... f
Brc1cccc(Nc2ncnc3[nH]ccc23)c1 [Compound 2] ... t
Nc1nc(Nc2cccc(Br)c2)c2cc[nH]c2n1 [Compound 8] ... f

From here, focus on the item given below.
Enquiry: Hi there! Is EGFR % Activity Set3 for COc1ccc(Nc2ncnc3[nH]ccc23)cc1 [Compound 6] below 1%, do you know?
Return: f

---

Target: aurora A kinase (AURKA) (Homo sapiens)
Construct: purchased BPS Bioscience (assay run externally by the vendor)
Sequence (O14965 1-403): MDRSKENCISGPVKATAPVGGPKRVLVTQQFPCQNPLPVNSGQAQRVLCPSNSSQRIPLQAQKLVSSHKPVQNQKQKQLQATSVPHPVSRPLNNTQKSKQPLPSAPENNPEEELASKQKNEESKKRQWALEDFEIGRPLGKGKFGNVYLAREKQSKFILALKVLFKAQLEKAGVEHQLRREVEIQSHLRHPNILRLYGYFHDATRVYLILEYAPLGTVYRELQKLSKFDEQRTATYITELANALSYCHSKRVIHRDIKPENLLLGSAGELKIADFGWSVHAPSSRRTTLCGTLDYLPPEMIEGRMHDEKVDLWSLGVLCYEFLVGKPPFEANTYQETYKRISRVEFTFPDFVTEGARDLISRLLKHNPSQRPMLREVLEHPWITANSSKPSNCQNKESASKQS
Test: ADP-Glo kinase assay, Aurora A
Format: biochemical
Settings: Log[nM] 3.0; Set1
value kind: Aurora A % Activity Set1 (%)
Express the result in % but write the number alone.

Nc1nc(Nc2cccc(Br)c2)c2cc[nH]c2n1 ... 84
c1ccc(Oc2ccc(Nc3ncnc4[nH]ccc34)cc2)cc1 ... 77
Clc1ccccc1Nc1ncnc2[nH]ccc12 ... 87
Cc1cccc(Nc2ncnc3[nH]ccc23)c1 ... 89
c1ccc(Cc2ccc(Nc3ncnc4[nH]ccc34)cc2)cc1 ... 77

Entry under test: COc1ccc(Nc2ncnc3[nH]ccc23)cc1 . Its Aurora A % Activity Set1 was 88

Entry under test: Brc1cccc(Nc2ncnc3[nH]ccc23)c1 . Its Aurora A % Activity Set1 was 70

---

target: aurora A kinase (AURKA) (Homo sapiens); construct: purchased BPS Bioscience (assay run externally by the vendor); assay: ADP-Glo kinase assay, Aurora A; format: biochemical; conditions: Log[nM] 3.5; Set2
value kind: Aurora A % Activity Set2 (%)
Express the result in % but write the number alone.

# example entries with known answers
Clc1ccc(Nc2ncnc3[nH]ccc23)cc1 ... 69
Cc1cccc(Nc2ncnc3[nH]ccc23)c1 ... 50
Clc1cccc(Nc2ncnc3[nH]ccc23)c1 ... 48
Clc1ccc(Nc2ncnc3[nH]ccc23)cc1Cl ... 51
c1ccc(Oc2ccc(Nc3ncnc4[nH]ccc34)cc2)cc1 ... 63

Entry under test: Clc1ccc(Nc2ncnc3[nH]ccc23)cc1Br . Its Aurora A % Activity Set2 was 40

Entry under test: c1ccc(Nc2ncnc3[nH]ccc23)cc1 . Its Aurora A % Activity Set2 was 70

Entry under test: Brc1ccc(Nc2ncnc3[nH]ccc23)cc1 . Its Aurora A % Activity Set2 was 55

Entry under test: c1ccc(Cc2ccc(Nc3ncnc4[nH]ccc34)cc2)cc1 . Its Aurora A % Activity Set2 was 45

Entry under test: Nc1nc(Nc2cccc(Br)c2)c2cc[nH]c2n1 . Its Aurora A % Activity Set2 was 57

Entry under test: Brc1cccc(Nc2ncnc3[nH]ccc23)c1 . Its Aurora A % Activity Set2 was 34

Entry under test: Fc1cc(Nc2ncnc3[nH]ccc23)ccc1Cl . Its Aurora A % Activity Set2 was 57

Entry under test: Cc1ccccc1Nc1ncnc2[nH]ccc12 . Its Aurora A % Activity Set2 was 73

Entry under test: Clc1ccccc1Nc1ncnc2[nH]ccc12 . Its Aurora A % Activity Set2 was 68

Entry under test: Cc1ccc(Nc2ncnc3[nH]ccc23)cc1 . Its Aurora A % Activity Set2 was 66

Entry under test: COc1ccc(Nc2ncnc3[nH]ccc23)cc1 . Its Aurora A % Activity Set2 was 80

Entry under test: FC(F)(F)c1cccc(Nc2ncnc3[nH]ccc23)c1 . Its Aurora A % Activity Set2 was 63
